Collected pIC50 values appear next to each entry.
target: HLA-A*02:01; experiment: IEDB peptide-MHC binding, purified MHC/competitive/fluorescence; bounds were set here for any values at or beyond the usual limits of such assays; settings: source organism: Variola virus
The read-out pIC50 is expressed as -log10 of concentration in moles per litre.

>>> print(df.to_string())
   residue_codes  study_target  reported
0      FSTLDKITD   HLA-A*02:01      4.27
1      RLKVFLPNP   HLA-A*02:01      5.03

The record that follows has no pIC50 shown yet.
Name the recorded pIC50 of the item TGVGKTSQV in your answer.
4.44

* * *

target: HLA-A*33:01; test: IEDB peptide-MHC binding, purified MHC/competitive/radioactivity; filed as Kd, often an IC50 or EC50 that approximates it; bounds were set here for any values at or beyond the usual limits of such assays; details: source organism: SARS coronavirus Tor2
Quick reference: Kd of the listed items.

Supply reported Kd belonging to this sequence: MLPPCYNFLK
0.138 µM

Indicate the recorded Kd value for this sequence: TVSALVYDNK
9.75 µM

// Input: SSYSLFDMSK . Output its Kd only.
10.1 µM

Return reported Kd. Input sequence: IVPFWITAIY
2.36 µM

* * *

target: HLA-B*57:01; experiment: IEDB peptide-MHC binding, purified MHC/direct/fluorescence; filed as Kd, often an IC50 or EC50 that approximates it; bounds were set here for any values at or beyond the usual limits of such assays; details: source organism: Brucella abortus 2308
REPORTED_PROPERTY: Kd

Query Kd for YWMGGTTYF
≥ 20 µM

* * *

biological target: HLA-B*35:01; assay: IEDB peptide-MHC binding, purified MHC/direct/fluorescence; filed as Kd, often an IC50 or EC50 that approximates it; bounds were set here for any values at or beyond the usual limits of such assays; settings: source organism: Bacillus cereus 03BB108
REPORTED_PROPERTY: Kd

Report measured Kd; entry is SQMPPQKIM
661 nM

* * *

biological target: HLA-A*01:01; assay: IEDB peptide-MHC binding, purified MHC/direct/fluorescence; filed as Kd, often an IC50 or EC50 that approximates it; bounds were set here for any values at or beyond the usual limits of such assays; settings: source organism: Brucella abortus 2308
REPORTED_PROPERTY: Kd

Entry YWMGGTTYF needs its Kd filled in; supply it.
≥ 20 µM

* * *

target: HLA-A*23:01; assay: IEDB peptide-MHC binding, purified MHC/competitive/radioactivity; filed as Kd, often an IC50 or EC50 that approximates it; bounds were set here for any values at or beyond the usual limits of such assays; conditions: source organism: Lassa virus Josiah
pKd: −log10 of the molar value.
REPORTED_PROPERTY: pKd

Note down pKd recorded for VFRTSTPRVV
≤ 4.15

* * *

log10 Kd overview
target: HLA-B*54:01; assay: IEDB peptide-MHC binding, purified MHC/competitive/radioactivity; filed as Kd, often an IC50 or EC50 that approximates it; bounds were set here for any values at or beyond the usual limits of such assays; conditions: source organism: SARS coronavirus Tor2
Would you kindly interpret these values as log10 of Kd expressed in nM?

Here is how some sequences turned out for log10 Kd.
   residue_codes  reported
0     MPILTLTRAL      1.93
1     LPDDFMGCVL      3.74
2      LPVNVAFEL      2.62

Tell us which log10 Kd value is on record for FPLCANGQVF
2.55

Fill in log10 Kd for record SPNLAWPLIV
2.75

* * *

target: HLA-A*24:02; experiment: IEDB peptide-MHC binding, purified MHC/competitive/fluorescence; bounds were set here for any values at or beyond the usual limits of such assays; settings: source organism: Vaccinia virus Copenhagen
// reported IC50 for each item listed
Field format: number, assumed nM, no unit text.

   residue_codes  reported
0      RIPNSLHSL       656

Answer with the recorded IC50 for the sequence listed here: ITFALKKLI
2300

* * *

target: HLA-B*08:02; assay: IEDB peptide-MHC binding, purified MHC/direct/fluorescence; filed as Kd, often an IC50 or EC50 that approximates it; bounds were set here for any values at or beyond the usual limits of such assays; settings: source organism: Influenza A virus(A/swine/Henan/3/2004(H9N2))
REPORTED_PROPERTY: Kd

State, in one line, measured Kd of RVDKLTQGR
≥ 20 µM

* * *

target: HLA-A*02:03; test: IEDB peptide-MHC binding, purified MHC/competitive/fluorescence; filed as Kd, often an IC50 or EC50 that approximates it; bounds were set here for any values at or beyond the usual limits of such assays; settings: source organism: human gammaherpesvirus 4
REPORTED_PROPERTY: Kd

Report Kd, nothing else, for this sequence: CLGGLLTMV
0.67 nM

* * *

biological target: HLA-B*53:01; assay: IEDB peptide-MHC binding, purified MHC/competitive/radioactivity; filed as Kd, often an IC50 or EC50 that approximates it; bounds were set here for any values at or beyond the usual limits of such assays; conditions: source organism: Triticum aestivum
REPORTED_PROPERTY: Kd

Input YPSGQGSF , output reported Kd.
5.15 µM

* * *

molecular target: HLA-A*24:03; experiment: IEDB peptide-MHC binding, purified MHC/direct/fluorescence; filed as Kd, often an IC50 or EC50 that approximates it; bounds were set here for any values at or beyond the usual limits of such assays; details: source organism: Vibrio parahaemolyticus
REPORTED_PROPERTY: Kd (nM)
Field: numeric (nM). Do not append units.

Provide one value: measured Kd of RTHTLRDAK
472

* * *

target: HLA-A*02:19; test: IEDB peptide-MHC binding, purified MHC/competitive/fluorescence; filed as Kd, often an IC50 or EC50 that approximates it; bounds were set here for any values at or beyond the usual limits of such assays; conditions: source organism: Vibrio cholerae
REPORTED_PROPERTY: Kd

Return reported Kd. Input sequence: TRAPAPFPL
≥ 20 µM

* * *

target: HLA-A*11:01; experiment: IEDB peptide-MHC binding, purified MHC/competitive/radioactivity; filed as Kd, often an IC50 or EC50 that approximates it; bounds were set here for any values at or beyond the usual limits of such assays; details: source organism: Mammarenavirus lassaense
REPORTED_PROPERTY: pKd
The value called pKd is obtained by taking minus log10 of the concentration in mol/L.

For the sequence ICKMPLPTR , report pKd.
5.22

* * *

molecular target: HLA-A*11:01; experiment: IEDB peptide-MHC binding, purified MHC/competitive/fluorescence; bounds were set here for any values at or beyond the usual limits of such assays; settings: source organism: Zaire ebolavirus
IC50 values by entry
Respond numerically; units are µM and should not be typed.

Please give the documented IC50 of GIRGFPRCR
42.1

Given the sequence QIIHDFVDK , write its reported IC50.
6.34

Identify measured IC50 associated with VLYYHMMKD
12.6

Please list IC50 recorded for the sequence TNAMVTLRK
0.311

Output IC50 of AALSSLAKH
9.21

Look up and state reported IC50 for LRTFSILNR
33.1

For KILMNFHQK , write its IC50.
0.441

* * *

molecular target: HLA-A*26:01; experiment: IEDB peptide-MHC binding, purified MHC/direct/fluorescence; filed as Kd, often an IC50 or EC50 that approximates it; bounds were set here for any values at or beyond the usual limits of such assays; settings: source organism: Influenza A virus H3N2
REPORTED_PROPERTY: Kd

Return reported Kd. Input sequence: ATTHSWIPK
≥ 20 µM

* * *

target: HLA-A*02:19; experiment: IEDB peptide-MHC binding, purified MHC/competitive/fluorescence; filed as Kd, often an IC50 or EC50 that approximates it; bounds were set here for any values at or beyond the usual limits of such assays; conditions: source organism: Bacillus anthracis str. A0488
REPORTED_PROPERTY: pKd
Scale: negative log10 of molar concentration, which is what pKd denotes.

Input DMNLEQWSV , output reported pKd.
7.93

* * *

biological target: HLA-B*08:02; test: IEDB peptide-MHC binding, purified MHC/competitive/fluorescence; filed as Kd, often an IC50 or EC50 that approximates it; bounds were set here for any values at or beyond the usual limits of such assays; conditions: source organism: Human immunodeficiency virus 1
REPORTED_PROPERTY: Kd

Please supply the value of reported Kd for the item EVKSLFNTV
≥ 20 µM

* * *

molecular target: HLA-B*58:01; assay: IEDB peptide-MHC binding, purified MHC/competitive/fluorescence; filed as Kd, often an IC50 or EC50 that approximates it; bounds were set here for any values at or beyond the usual limits of such assays; conditions: source organism: Vibrio cholerae
REPORTED_PROPERTY: Kd

Give a short answer stating reported Kd for TRAPAPFPL .
≥ 5 µM

* * *

target: HLA-A*24:02; test: IEDB peptide-MHC binding, purified MHC/competitive/fluorescence; filed as Kd, often an IC50 or EC50 that approximates it; bounds were set here for any values at or beyond the usual limits of such assays; details: source organism: Cryptosporidium parvum
REPORTED_PROPERTY: Kd (nM)
# value in nM; strip the unit string

Please give measured Kd of the following entry: RYMYIYLFI
3.6
